ASSAY_DETAILS: 384-well plate pilot, post-Golgi transport modulator project, inhibition of yeast transport mutant growth (AID 636)
TEST_SETTINGS: absorbance 615 nm, about 18 h, hits give high values
Exercise: for every item that follows, state its recorded inhibition.
Give bare numbers, in %.

COC(=O)c1ccccc1NC(=O)c1cc(-c2ccc(OC)c(OC)c2)on1 | -7.57
COC(=O)C1=C(N)Oc2cc(C)[nH]c(=O)c2C1c1ccncc1 (configuration not stated) | -0.79

Respectfully, I request inhibition for each entry included below.
1. Cc1cc(C)nc(NC(=O)c2c(-c3c(Cl)cccc3Cl)noc2C)n1
2. Cc1nc(/N=C\N(C)C)sc1C(=O)Nc1ccccc1
3. COc1ccc(NC(=O)CSC2=C(C#N)C(c3ccco3)C3=C(CCCC3=O)N2)c(OC)c1 (configuration not stated)
4. O=C(CCSc1ccccc1)N1CCN(C(=O)c2ccco2)CC1

## Output
1. -7.73
2. -5.81
3. -2.11
4. -0.79

Respectfully, I request inhibition for each entry included below.
1. c1nnc(NC2=NCCCCC2)s1
2. CCOc1ccc(C2C(C#N)=C(N)Oc3cc(C)n(CCN(C)C)c(=O)c32)cc1OCC (configuration not stated)
3. CCOC(=O)C1CCCN(C/C(O)=C(\C#N)c2nc(-c3ccc(Cl)cc3)cs2)C1 (configuration not stated)
4. CCCc1nnc(SCC(=O)N2CCOCC2)n1Cc1ccco1
5. Cc1ncoc1C(=O)Nc1ccccc1C(N)=O
6. CCOc1ccc(C2/C(=C(/O)c3ccc(OC)cc3)C(=O)C(=O)N2c2cc(C)on2)cc1OC (configuration not stated)

## Output
[-2.16, -4.32, -6.16, -4.67, -6.08, 1.45]

###

ASSAY_DETAILS: growth suppression of yeast trafficking mutant, preliminary HTS, modulators of trafficking downstream of Golgi apparatus project, 1536-format plate, OD 615 nm (AID 637)
TEST_SETTINGS: yeast transport mutant growth, absorbance 615 nm, 18 h
The source made the active and inactive calls. No stated cut-off is given here; in the data, active means inhibition above about 30%; inactive means the rest.
Allowed answers: active, inactive

N#CCCn1ccc(NC(=O)c2ccc(Cl)cc2)n1 | inactive
O=C(CSc1nnc(Cn2cnc3ccccc32)o1)c1ccccc1 | inactive
COC(=O)CC1SC(=O)NC1=O (configuration not stated) | inactive
Cc1nc2c(=O)oc3ccccc3c2n1-c1ccccc1 | inactive

Moving on to another compound below.
## Input Please state the recorded outcome for this compound: "O=C(c1ccco1)N1CCN(S(=O)(=O)c2ccc3c(c2)CCN3C(=O)C2CCC2)CC1"
## Output inactive

###

Exercise: for every item that follows, state its recorded inhibition.
ASSAY_DETAILS: growth suppression of yeast trafficking mutant, preliminary HTS, modulators of trafficking downstream of Golgi apparatus project, 1536-format plate, OD 615 nm (AID 637)
TEST_SETTINGS: yeast transport mutant growth, absorbance 615 nm, 18 h; hits give high values
One number for each entry, in %.

# example entries with known answers
COc1ccc2nc(SCC(=O)NC(C)C)[nH]c2c1 | -10.8
CCn1c(=O)cc(OCC(=O)NCCCN2CC(C)CC(C)C2)c2ccccc21 (stereo not given) | -2.55
CC1(C(=O)CSc2nc3ccccc3s2)CCC(=O)O1 (stereo not given) | -3.17
CCc1nnc(NC(=O)CSc2nnc(-c3ccc(OC)cc3)n2C)s1 | 1.8

Respectfully, I request inhibition for each entry included below.
1. CCOP(=O)(c1ccc(N(C)C)cc1)C(O)c1ccccc1OC (stereo not given)
2. O=C(NCc1ccco1)c1csc(Nc2ccccc2Cl)n1
3. COc1ccc(S(=O)(=O)N2CCSC2c2ccccc2)cc1 (stereo not given)
4. O=C(CCSc1ccccc1)N1CCN(C(=O)c2ccco2)CC1
5. CCc1nc2c(cnn2-c2ccc(Cl)cc2)c(=O)n1-c1ccc2c(c1)OCCO2
6. COc1ccc(CNC(=O)c2cc(-c3ccc(OC)c(OC)c3)on2)cc1
7. CCCCOC(=O)CNc1nnc(SCC(=O)OCC)[nH]c1=O
8. Cc1cc(NC(=O)Cn2cnc3c(cnn3C(C)(C)C)c2=O)no1

## Output
[-3.65, -5.25, -2.95, -0.32, -5.97, -3.83, -3.81, -5.16]

Respectfully, I request inhibition for each entry included below.
1. Nc1nc(CN2CCN(Cc3ccc4c(c3)OCO4)CC2)nc(Nc2ccccc2)n1
2. Cc1ccc(C(C)n2cc(C(=O)NCCN3CCN(C)CC3)nn2)cc1 (stereo not given)
3. O=C(NCc1ccccc1)N1CCn2c(nc3ccccc32)C1
4. CC1CCCCC1NC(=O)C1CCN(C(=O)NC2CCCCC2)CC1 (stereo not given)
5. Cn1cc(CC(=O)Nc2cccc(C#N)c2)c2ccccc21
6. O=C(Nc1cccc(C(=O)N2CCOCC2)c1)c1cccnc1
7. COc1ccc(Cn2nnnc2C(c2cccs2)N2CCOCC2)cc1 (stereo not given)
8. COc1ccc(-c2cc3nc(C)c(CCC(=O)NCc4ccco4)c(C)n3n2)c(OC)c1

## Output
5.48
-6.19
1.15
0.17
-2.22
-3.11
5.33
6.91

Respectfully, I request inhibition for each entry included below.
1. CCOC(=O)CC1=C(C(=O)OCC)C(c2ccc(C)o2)C(C#N)=C(N)O1 (stereo not given)
2. COCCn1c(SCC(=O)Nc2cccc(OC)c2)nnc1-c1ccccc1
3. COc1ccccc1C(=O)Nc1ccc(S(=O)(=O)N2CCOCC2)cc1
4. CCC(c1nnc(SCC(=O)NCC2CCCO2)n1Cc1ccccc1)N(C)C (stereo not given)
5. COc1cc(OC)cc(OCC(O)Cn2cnc(-c3ccccc3)c2)c1 (stereo not given)

## Output
1. -9.05
2. 4.43
3. 4.59
4. -1.61
5. -2.13

Respectfully, I request inhibition for each entry included below.
1. CCCS(=O)(=O)N1CCCC(C(=O)N2CCC(Cc3ccccc3)CC2)C1 (stereo not given)
2. CCOC(=O)c1sc2ncn(/N=C/N(C)C)c(=O)c2c1C
3. CC(=O)OC1c2ccccc2C(=O)N1c1ccccc1C (stereo not given)

## Output
4.92
4.68
0.83

Respectfully, I request inhibition for each entry included below.
1. Cc1ccc(-c2noc(-c3ccccc3C(=O)NCC3CCCO3)n2)cc1 (stereo not given)
2. O=C(CN1CCCC1)Nc1ccc(NC(=O)Nc2ccccc2)cc1
3. COc1ccc(NC(=O)C(C)Oc2ccc(/C(C)=N\O)cc2)cc1 (stereo not given)
4. CCCCCOC(=O)C1=C(C)N(C)C(=O)NC1c1cc(Br)c(O)c(OC)c1 (stereo not given)
5. COc1cccc(C(=O)CN2CCC(NC(=O)NC3CCCCC3)CC2)c1
6. CCCNc1nc2c(c(=O)n(C)c(=O)n2C)n1Cc1cccc(C)c1
7. Cc1ccc(Cl)cc1N1CCN(C(=O)C2CCCN(S(=O)(=O)c3cnc[nH]3)C2)CC1 (stereo not given)
8. Cc1csc(NC(=O)CSc2nsc(SCC(=O)Nc3nc(C)cs3)c2C#N)n1

## Output
1: -3.97; 2: -6.39; 3: -0.32; 4: -7.62; 5: -2; 6: -3.97; 7: -2.62; 8: -1.43

Respectfully, I request inhibition for each entry included below.
1. CCN(CC)CCNC(=O)CCn1c(=S)[nH]c2cc3c(cc2c1=O)OCO3
2. N#Cc1c2n(c(=S)n(-c3ccccn3)c1=O)CCCCC2
3. CCOC(=O)N1CCN(S(=O)(=O)c2ccc(F)c(C(=O)Nc3cc(C)cc(C)c3)c2)CC1
4. O=C(c1ccc2c(c1)c(=O)oc1ccccc12)N1CCCCC1
5. CCOC(=O)CN1CC23C=CC(O2)C(C(=O)Nc2ccc(OC)cc2OC)C3C1=O (stereo not given)
6. Cc1cnc(NC(=O)CSc2nc3ccccc3c(=O)[nH]2)s1
7. CCOC(=O)Cn1c(S(=O)(=O)Cc2ccccc2)nc2ccccc21
8. CCN(CCCNC(=O)CC1Oc2ccc(C)cc2NC1=O)Cc1ccccc1 (stereo not given)

## Output
[-2.3, -10.7, -11.8, 3.17, 1.83, -6.19, -3, -2.13]

## Input If you can, please state the reported inhibition value of "N#CC1=C(N)SC(N)=C(C#N)C1c1ccc(C(F)(F)F)cc1" .
## Output 0.82

###

ASSAY_DETAILS: reversal of MRP1-mediated doxorubicin resistance, pilot screen, H69AR cells, doxorubicin co-treatment (AID 601)
TEST_SETTINGS: H69AR cells + 2 uM doxorubicin, CellTiter-Glo, 72 h; at 10 µM; hits give high values
Exercise: for every item that follows, state its recorded differential viability (reversal).
Give bare numbers, in %.

# example entries with known answers
CCOC(=O)C1=C(C)Nc2ncnn2C1c1ccccc1F (stereo not drawn) | -5
O=C(CSc1ncnc2c1oc1ccccc12)NCc1ccco1 | -5.7
COc1cc2c(=O)n(Cc3ccccc3)c(=O)n(CC(=O)NCc3ccco3)c2cc1OC | -0.76
Cc1ccc(C)c(S(=O)(=O)NCc2cccnc2)c1 | 1.22
CCOC(=O)c1c(NC(=O)c2ccn(CC)n2)sc2c1CCCC2 | -15

Respectfully, I request differential viability (reversal) for each entry included below.
1. CN(C1CCS(=O)(=O)C1)S(=O)C12CC3CC(CC(C3)C1)C2 (stereo not drawn)
2. Cc1nc2ccccn2c1/C(O)=C1\C(=O)C(=O)N(CCN2CCOCC2)C1c1cccs1 (stereo not drawn)
3. Cc1ccc(C)c(N2CCN(C(=O)C3CCN(S(=O)(=O)c4c(C)noc4C)CC3)CC2)c1

## Output
1: 3.66; 2: 4.16; 3: 27.8

Respectfully, I request differential viability (reversal) for each entry included below.
1. CCOc1ccc(CSC(CC(=O)O)C(=O)O)cc1 (stereo not drawn)
2. Clc1cc2c(c(Cn3cnc4ccccc43)c1)OCOC2
3. COc1cccc(N2CCN(CC(=O)Nc3nnc(-c4ccccc4)s3)CC2)c1
4. CC1=C(C)[N+](=O)C2CCCCC2N1[O-] (stereo not drawn)

## Output
-2.67
6.4
-19.7
9.79

Respectfully, I request differential viability (reversal) for each entry included below.
1. O=C(NCCCCNC(=O)c1c(F)c(F)c(F)c(F)c1F)c1c(F)c(F)c(F)c(F)c1F
2. O=C(NCc1cccnc1)c1ccc2c(c1)OCO2
3. CC(C)C(c1nnnn1CC1CCCO1)N1CCN(Cc2ccc3c(c2)OCO3)CC1 (stereo not drawn)
4. Cc1ccc(C(=O)CCC2CCCC2=O)cc1 (stereo not drawn)

## Output
[10.4, -16.9, 4.93, 0.57]

Respectfully, I request differential viability (reversal) for each entry included below.
1. CCc1nnc(NC(=O)c2ccc(COc3ccc(C)cc3)o2)s1
2. Cc1c(C(=O)NCc2ccccc2)oc2c1C(=O)CCC2

## Output
1: -4.93; 2: 15.6
